Entry source: PubChem BioAssay (NCI)

- Tested on: KM12 colon
- measurement description: NCI tumour cell line growth inhibition, 48 h
measurement type: TGI

The cases that follow already have their TGI on record.
compound | result
C=CCOc1ccc(C2c3c([nH][nH]c3=O)CC(C)(O)C2C(=O)OC)cc1OC (stereo unspecified) | > 100 µM
c1cncc(C(Nc2cccc3cccnc23)Nc2cccc3cccnc23)c1 | > 100 µM
Cc1c(Cl)cccc1NC(=O)c1sc2nc3c(cc2c1N)CCCCCC3 | > 50 µM
Cn1c2c(c3ccccc31)CC(=O)N1CCCCC1C21OCCO1 (stereo unspecified) | > 100 µM
C/C(=N/NC(=S)N(Cc1ccccn1)Cc1ccccn1)c1cnccn1 | 19.7 µM

For reference, reported TGI for Cc1ccc(C(=O)N/N=C/c2cccc(Oc3ccccc3)c2)cn1 stands at > 100 µM

Kindly note the recorded TGI for Cc1ccc(NC2=C(Sc3ccc(Cl)cc3)C(=O)N(Cc3ccccc3)C2=O)cc1Cl , which is > 100 µM

Entry C(/C=N/NC1=NCCN1)=N\NC1=NCCN1 , TGI reported as > 100 µM

GET /value?item= Cn1c(=O)c2[nH]c(COCc3nc4c([nH]3)c(=O)n(C)c(=O)n4C)nc2n(C)c1=O &field=TGI returns > 100 µM

Record summary for CC(=O)OC[C@@H]1[C@H]2CC(=O)O[C@H]2C[C@H]1OC(C)=O : reported TGI = > 100 µM

O=S(=O)(O)Nc1ccc(-c2nc3ccccc3s2)cc1Cl yielded TGI of > 100 µM

----------
- System: NCI-H23 lung
- measurement description: NCI tumour cell line growth inhibition, 48 h; in the data active = GI50 below about 0.43 µM; inactive = the rest
*1 amine or outer side, *2 acyl side, *3 side chain or, on linkers, in order; H or OH if unused. Where a SMILES comes first, the peptide text is derived from it. Bridges are numbered along the chain shown (N, C = ends). [ ]: non-standard residue; d: D form. The star is where a group is joined. Phe(3-Me) = Cc1cccc(C[C@H](N)C(=O)O)c1; NH(4-Cl-2-F-phenyl) = Fc1cc(Cl)ccc1N*; Pro(4R-Me) = C[C@H]1CN[C@H](C(=O)O)C1; Hyp = O=C(O)[C@@H]1C[C@@H](O)CN1; aThr = C[C@H](O)[C@H](N)C(=O)O; Pip = O=C(O)[C@@H]1CCCCN1; CO = O=C([*:1])[*:2]
Entry note: the call must match one of active, inactive

Answered cases to consult:
compound | qualitative label
O=C(CNC(=O)c1cccc2ccccc12)Nc1ccccc1Oc1ccccc1 | inactive
CN1CCN(Cc2ccc(NC(=O)c3[nH]ncc3Nc3ncnc4c3CCC4)cc2)CC1 | inactive
c1ccc2[nH]c(-c3ccc(OCCCCCOc4ccc(-c5nc6ccccc6[nH]5)cc4)cc3)nc2c1 | inactive
Nc1ncc(-c2ccc(C(F)(F)F)cc2)c(NC2CCCCCC2)n1 | inactive
N#CSCC1CC(O)(c2ccccc2)C(c2ccccc2)C(c2ccc(F)cc2)O1 (configuration not stated) | inactive
CCC(C)/C=C(C)/C=C/C(=O)c1c(O)c(-c2ccc(O)cc2)c[nH]c1=O (configuration not stated) | inactive
COc1ccc(C2=C(c3cn(C)c4ccccc34)C(=O)NC2=O)cc1OC | inactive
Cc1cc(N/N=C/c2nc(-c3ccccc3)oc2C)c2cc(Cl)ccc2n1 | inactive

Status in this test for Cc1cccc(C[C@H](NC(=O)Nc2ccc(Cl)cc2F)C(=O)N[C@@H]2C(=O)N3C[C@H](O)C[C@H]3C(=O)N3CCCC[C@H]3C(=O)N[C@@H](C)C(=O)N3C[C@H](C)C[C@H]3C(=O)O[C@H]2C)c1 ({NH(4-Cl-2-F-phenyl)-CO}-[Phe(3-Me)][aThr][Hyp][Pip]A[Pro(4R-Me)]; ester 2-C) ?
inactive

// param item: CCc1ccc(CCC(=O)Nc2ncc(Cc3ccccc3)s2)o1 ; yields the recorded call
inactive

Assay outcome for Cc1c(Cl)cccc1NC(=O)c1sc2nc3c(cc2c1N)CCCCCC3 : what was it?
active

In this assay, the call recorded for O=C(N/N=C/c1ccc(O)cc1O)c1ccc(Nc2ccnc(C(F)(F)F)c2)cc1 was what?
inactive

Tell me the assay call for O=C(Nc1ccncc1)C(=O)c1cn(S(=O)(=O)c2ccccc2F)c2ccccc12 please.
inactive

Recorded test outcome, item CN(C)CC#Cc1cccc(C(=O)c2cnn(-c3ccc(F)cc3)c2N)c1
inactive

Could you kindly confirm the outcome this assay logged for C[C@@H]1CCN(C(=O)CC#N)C[C@@H]1N(C)c1ncnc2[nH]ccc12 ?
inactive

Hello, I am checking results. What call was entered for c1cncc(CNc2ccccc2-c2nnc(Nc3ccc4c(c3)OCCO4)o2)c1 ?
active

Record lookup: outcome of this test for CO/N=C1/NC(=O)/C(=C/c2ccc3ncccc3c2)S1 ?
inactive

----------
- Tested on: UO-31 renal
- measurement description: NCI tumour cell line growth inhibition, 48 h
Quick reference for TGI among some compounds

Worked cases, TGI given:
compound | TGI
CC1(C)SC2C(NC(=O)Cc3ccccc3)C(=O)N2C1C(=O)O (stereo not drawn) | > 100 µM
CCCCC(=O)[O-].N.N.N.N.N.[Co+3].[O-][Cl+3]([O-])([O-])[O-] | > 100 µM
Cc1nc(NC(=S)Nc2ccc(F)cc2)sc1C(=O)NNC(=S)Nc1ccc(F)cc1 | 21 µM
Cc1ccc(NC(=S)NNC(=O)c2cc(-c3ccccc3)nc3ccccc23)cc1C | 36.3 µM
Cc1cc2c(C(N)=O)cccc2n1-c1nc2c(c(NCc3ccccc3)n1)CCCN2 | 0.474 µM

Reported TGI of O=C(Nc1ccncc1)C(=O)c1cn(S(=O)(=O)c2ccccc2F)c2ccccc12 : > 95 µM

In plain terms, O=C(c1ccc(Cl)cc1)N(C(=S)N1CCN(c2ccccc2)CC1)c1ccccc1 has a documented TGI of > 100 µM

----------
- Test system: PC-3 prostate
- measurement description: NCI tumour cell line growth inhibition, 48 h
measurement type: TGI

The following compounds have reported results that may help.
compound | target | TGI
Cc1ccc(N2C(=O)CC(=O)N(NC(=O)C(C)Oc3ccccc3C)C2=S)cc1 (stereo not drawn) | PC-3 prostate | > 100 µM
CSc1nc(-c2cc3c(c(SC)n2)CCC3)cc2c1CCC2 | PC-3 prostate | > 100 µM

In the following, a different compound is considered.
Reported TGI ( O=C(Nc1ccc2oc(=O)c(C(=O)O)cc2c1)Oc1ccccc1 ) = > 100 µM

----------
- System: CCRF-CEM leukemia
- measurement description: NCI tumour cell line growth inhibition, 48 h
*1 amine or outer side, *2 acyl side, *3 side chain or, on linkers, in order; H or OH if unused. Where a SMILES comes first, the peptide text is derived from it. Bridges are numbered along the chain shown (N, C = ends). [ ]: non-standard residue; d: D form. The star is where a group is joined. Phe(3-Me) = Cc1cccc(C[C@H](N)C(=O)O)c1; NH(4-Cl-2-F-phenyl) = Fc1cc(Cl)ccc1N*; Pro(4R-Me) = C[C@H]1CN[C@H](C(=O)O)C1; Hyp = O=C(O)[C@@H]1C[C@@H](O)CN1; aThr = C[C@H](O)[C@H](N)C(=O)O; Pip = O=C(O)[C@@H]1CCCCN1; CO = O=C([*:1])[*:2]
// TGI lookup, one value per entry
Express your answer in µM, writing the number without its unit.

Please review the following examples before continuing.
compound | target | measurement type | numeric result
CCC(C)/C=C(C)/C=C/C(=O)c1c(O)c(-c2ccc(O)cc2)c[nH]c1=O (stereo unspecified) | CCRF-CEM leukemia | TGI | 19.7
O=C(N/N=C/c1cc(Br)cc(Br)c1[O-])c1ccccc1O.O=C(N/N=C/c1cc(Br)cc(Br)c1[O-])c1ccccc1O.[Mn+2] | CCRF-CEM leukemia | TGI | 6.42
Cc1cccc(C[C@H](NC(=O)Nc2ccc(Cl)cc2F)C(=O)N[C@@H]2C(=O)N3C[C@H](O)C[C@H]3C(=O)N3CCCC[C@H]3C(=O)N[C@@H](C)C(=O)N3C[C@H](C)C[C@H]3C(=O)O[C@H]2C)c1 ({NH(4-Cl-2-F-phenyl)-CO}-[Phe(3-Me)][aThr][Hyp][Pip]A[Pro(4R-Me)]; ester 2-C) | CCRF-CEM leukemia | TGI | 12
C=C1C(=O)O[C@@H]2C[C@@H](C)[C@@H]3[C@@H](OC4OC(COC(C)=O)C(O)C(O)C4O)CC(=O)[C@@]3(C)C[C@H]12 (stereo partly specified) | CCRF-CEM leukemia | TGI | 16.1
O=[N+]([O-])C(=C/C1CCCCC1)/C(=C\C1CCCCC1)[N+](=O)[O-] | CCRF-CEM leukemia | TGI | 17.7

Kindly note the recorded TGI for O=C(Nc1cc(Cl)ccc1O)c1cccc(NC2=C(Cl)C(=O)N(Cc3ccccc3)C2=O)c1 , which is 11.5

// TGI value for COc1ccc(C2c3cc4c(cc3OC(N3CCOCC3)C2C)OCO4)c(OC)c1 (stereo unspecified) : 38.1

Record CN1CCN(Cc2ccc(NC(=O)c3[nH]ncc3Nc3ncnc4c3CCC4)cc2)CC1 , field TGI: 11
